Data provenance is patent US11396495B2.

TEST SUMMARY: Pharmacokinetics in SD rats after intravenous or oral administration
Assay type: in vivo
ASSAY CONDITIONS: male, rat, plasma, po, P.O., 5 mg/kg
Counter-ions that a name gives are not always drawn.
Each entry below carries its reported AUC(0-t).
Give the number first and the unit second.

• Cc1ccc(N2CCc3cc(OC/C(=C/F)CN)ccc3C2=O)cc1 [Compound 24, hydrochloride] = 5280 ng·h/mL

Look at this compound and give its reported AUC(0-t). CCOC(=O)CN1CCc2cc(OC/C(=C/F)CN)ccc2C1=O [Compound 12, hydrochloride]
2890 ng·h/mL

###

SUBJECT OF TEST: rat adipose tissue homogenate SSAO/VAP-1 (Rattus norvegicus (Rat), UniProt O08590)
Sequence (O08590 whole entry): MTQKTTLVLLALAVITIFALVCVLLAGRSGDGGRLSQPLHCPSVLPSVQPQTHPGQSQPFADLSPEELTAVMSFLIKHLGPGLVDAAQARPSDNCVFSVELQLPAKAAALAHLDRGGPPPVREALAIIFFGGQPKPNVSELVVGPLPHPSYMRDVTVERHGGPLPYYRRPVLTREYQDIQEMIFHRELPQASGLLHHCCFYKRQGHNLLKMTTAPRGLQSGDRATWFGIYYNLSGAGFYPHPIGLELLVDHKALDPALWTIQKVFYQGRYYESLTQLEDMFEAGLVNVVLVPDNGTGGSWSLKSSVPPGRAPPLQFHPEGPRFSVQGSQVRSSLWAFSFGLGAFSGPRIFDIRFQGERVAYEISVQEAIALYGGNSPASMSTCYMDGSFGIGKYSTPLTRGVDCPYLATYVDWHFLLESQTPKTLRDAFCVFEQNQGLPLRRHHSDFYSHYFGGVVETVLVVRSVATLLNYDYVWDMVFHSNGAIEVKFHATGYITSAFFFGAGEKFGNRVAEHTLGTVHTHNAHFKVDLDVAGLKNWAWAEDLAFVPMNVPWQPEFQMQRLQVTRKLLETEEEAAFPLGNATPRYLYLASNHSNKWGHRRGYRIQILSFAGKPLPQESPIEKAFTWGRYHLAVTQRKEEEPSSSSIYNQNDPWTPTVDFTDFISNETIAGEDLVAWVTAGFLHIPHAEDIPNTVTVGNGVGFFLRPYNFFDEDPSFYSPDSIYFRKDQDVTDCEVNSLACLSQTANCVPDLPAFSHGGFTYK
TEST SUMMARY: Determination of inhibitory activity of rat adipose tissue homogenate SSAO/VAP-1
Assay type: biochemical, Sprague Dawley rats
ASSAY CONDITIONS: rat abdominal adipose tissue homogenate, pargyline pretreated, 37° C.
Where a name gives a salt, the structure may show the parent alone.
MEASURED ATTRIBUTE: IC50 (nM)
Please state the figure in nM; there is no need to write the unit.

- CCOC(=O)CN1CCc2cc(OC/C(=C\F)CN)ccc2C1=O [Compound 13, hydrochloride]: 8.03
- NC/C(=C\F)COc1ccc2c(c1)CCN(CC1CCOCC1)C2=O [Compound 10, hydrochloride]: 9.54
- COCCN1CCc2cc(OC/C(=C\F)CN)ccc2C1=O [Compound 19, hydrochloride]: 5.7
- CN1CCc2cc(OC/C(=C/F)CN)ccc2C1=O [Compound 8, hydrochloride]: 8.84
- CCOC(=O)CN1CCc2cc(OC/C(=C/F)CN)ccc2C1=O [Compound 12, hydrochloride]: 10.1

Form field - read-out: IC50; system: rat adipose tissue homogenate SSAO/VAP-1 (Rattus norvegicus (Rat), UniProt O08590); submitted item: NC/C(=C\F)COc1ccc2c(c1)CCNS2(=O)=O [Compound 32, hydrochloride]
6.22

Please give the result for COCCN1CCc2cc(OC/C(=C/F)CN)ccc2C1=O [Compound 18, hydrochloride] too.
6.13

Moving on to NC/C(=C/F)COc1ccc2c(c1)NC(=O)CC2 [Compound 2, hydrochloride]
11.6

###

SUBJECT OF TEST: Human recombinant SSAO/VAP-1 (Homo sapiens (Human), UniProt Q16853)
Sequence (Q16853 whole entry): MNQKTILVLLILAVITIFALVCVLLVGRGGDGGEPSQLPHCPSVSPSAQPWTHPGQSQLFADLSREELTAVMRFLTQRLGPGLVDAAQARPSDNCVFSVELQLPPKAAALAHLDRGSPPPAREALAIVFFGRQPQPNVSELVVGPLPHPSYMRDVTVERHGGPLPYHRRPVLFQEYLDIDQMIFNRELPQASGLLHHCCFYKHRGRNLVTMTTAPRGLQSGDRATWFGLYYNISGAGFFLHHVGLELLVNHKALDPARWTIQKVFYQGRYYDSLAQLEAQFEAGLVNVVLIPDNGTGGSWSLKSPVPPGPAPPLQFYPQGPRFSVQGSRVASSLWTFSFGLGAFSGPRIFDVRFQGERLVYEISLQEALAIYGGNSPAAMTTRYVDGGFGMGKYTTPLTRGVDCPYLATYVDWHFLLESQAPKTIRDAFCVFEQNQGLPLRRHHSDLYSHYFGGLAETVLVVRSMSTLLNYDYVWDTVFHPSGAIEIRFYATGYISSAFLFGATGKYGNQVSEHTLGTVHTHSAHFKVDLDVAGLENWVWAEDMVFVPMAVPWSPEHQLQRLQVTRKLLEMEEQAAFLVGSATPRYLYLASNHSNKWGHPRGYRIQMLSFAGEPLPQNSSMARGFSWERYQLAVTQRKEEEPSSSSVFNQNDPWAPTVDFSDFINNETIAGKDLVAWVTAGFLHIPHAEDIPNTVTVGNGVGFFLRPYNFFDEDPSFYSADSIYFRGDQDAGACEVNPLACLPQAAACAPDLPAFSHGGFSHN
TEST SUMMARY: Determination of inhibitory activity of human recombinant SSAO/VAP-1 (Amplex Red, benzylamine)
Type: biochemical
ASSAY CONDITIONS: human recombinant SSAO/VAP-1, 30 min preincubation at room temperature; read-out: SSAO/VAP-1(Human recombinant protein) IC50/nM
Where a name gives a salt, the structure may show the parent alone.
# log10 of IC50 listing for each entry below
Kindly note that the scale is log10 and the underlying IC50 is in nM.

* COC(=O)CN1CCc2cc(OC/C(=C/F)CN)ccc2C1=O [Compound 58, hydrochloride] | 0.07

Next:
Quick one: log10 of IC50 of NC/C(=C/F)COc1ccc2c(c1)CCN(CC1CCOCC1)C2=O [Compound 11, hydrochloride] ?
-0.09

###

SUBJECT OF TEST: Human recombinant SSAO/VAP-1 (Homo sapiens (Human))
TEST SUMMARY: Determination of inhibitory activity of human recombinant SSAO/VAP-1 (Amplex Red, benzylamine)
Format: biochemical
ASSAY CONDITIONS: human recombinant SSAO/VAP-1, 30 min preincubation at room temperature; read-out: SSAO/VAP-1(Human recombinant protein) IC50/nM
Counter-ions that a name gives are not always drawn.
MEASURED ATTRIBUTE: IC50 (nM)
Kindly answer with a numeric value in nM, unit omitted.

• NC/C(=C\F)COc1ccc2c(c1)CCN(c1ncccn1)C2=O [Compound 7, hydrochloride] = 0.09

What IC50 appears in the records for this compound with Human recombinant SSAO/VAP-1 (Homo sapiens (Human))? COC(=O)CN1CCc2cc(OC/C(=C\F)CN)ccc2C1=O [Compound 59, hydrochloride]
1.3

Again, but for N#Cc1ccc(N2CCc3cc(OC/C(=C\F)CN)ccc3C2=O)cc1 [Compound 39, hydrochloride]
0.53

Record: COc1ncc(N2CCc3cc(OC/C(=C\F)CN)ccc3C2=O)cn1 [Compound 55, hydrochloride]
0.82

###

Examples of molecules with documented Cmax follow.
TEST SUMMARY: Pharmacokinetics in SD rats after intravenous or oral administration
Assay type: in vivo
ASSAY CONDITIONS: male, rat, plasma, po, P.O., 5 mg/kg
Where a name gives a salt, the structure may show the parent alone.
Give the value, in units of ng/mL, as a plain number.

* Cc1ccc(N2CCc3cc(OC/C(=C/F)CN)ccc3C2=O)cc1 [Compound 24, hydrochloride] | 569

For the molecule shown here, CCOC(=O)CN1CCc2cc(OC/C(=C/F)CN)ccc2C1=O [Compound 12, hydrochloride] , give the reported Cmax.
2190

###

TEST SUMMARY: Pharmacokinetics in SD rats after intravenous or oral administration
Type: in vivo
ASSAY CONDITIONS: male, rat, plasma, iv, I.V., 1 mg/kg, read-out: Vss
Structures can show the parent of a compound that is named as a salt.
// Vd lookup, one value per entry
Express it in L/kg; write the number only.

* Cc1ccc(N2CCc3cc(OC/C(=C/F)CN)ccc3C2=O)cc1 [Compound 24, hydrochloride] | 9.19

Attention now turns to another entry.
If you can, please state the reported Vd value of CCOC(=O)CN1CCc2cc(OC/C(=C/F)CN)ccc2C1=O [Compound 12, hydrochloride] .
1.07

###

TEST SUMMARY: Pharmacokinetics in SD rats after intravenous or oral administration
Assay type: in vivo
ASSAY CONDITIONS: male, rat, plasma, po, P.O., 5 mg/kg
Counter-ions that a name gives are not always drawn.
Item-by-item account of half-life
Quick reminder: number only, in h, skip the unit.

• Cc1ccc(N2CCc3cc(OC/C(=C/F)CN)ccc3C2=O)cc1 [Compound 24, hydrochloride] = 3.45

Then there is this compound:
// half-life lookup, key: CCOC(=O)CN1CCc2cc(OC/C(=C/F)CN)ccc2C1=O [Compound 12, hydrochloride]
0.959

###

The following compounds are listed with their measured Tmax values.
TEST SUMMARY: Pharmacokinetics in SD rats after intravenous or oral administration
Type: in vivo
ASSAY CONDITIONS: male, rat, plasma, po, P.O., 5 mg/kg
Counter-ions that a name gives are not always drawn.

- Cc1ccc(N2CCc3cc(OC/C(=C/F)CN)ccc3C2=O)cc1 [Compound 24, hydrochloride]: 2.5 h

Here's the next entry for you.
For CCOC(=O)CN1CCc2cc(OC/C(=C/F)CN)ccc2C1=O [Compound 12, hydrochloride] , what is its reported Tmax?
0.417 h

###

Listed here are molecules together with their documented Tmax.
TEST SUMMARY: Pharmacokinetics in SD rats after intravenous or oral administration
Format: in vivo
ASSAY CONDITIONS: male, rat, plasma, iv, I.V., 1 mg/kg
Structures can show the parent of a compound that is named as a salt.
// note: answer is a bare numeric in min

Value lookup for Tmax; key = Cc1ccc(N2CCc3cc(OC/C(=C/F)CN)ccc3C2=O)cc1 [Compound 24, hydrochloride]
4.98

Let us now turn to CCOC(=O)CN1CCc2cc(OC/C(=C/F)CN)ccc2C1=O [Compound 12, hydrochloride]
15

###

SUBJECT OF TEST: rat adipose tissue homogenate SSAO/VAP-1 (Rattus norvegicus (Rat))
TEST SUMMARY: Determination of inhibitory activity of rat adipose tissue homogenate SSAO/VAP-1
Format: biochemical, Sprague Dawley rats
ASSAY CONDITIONS: rat abdominal adipose tissue homogenate, pargyline pretreated, 37° C.
Where a name gives a salt, the structure may show the parent alone.
Quick reference: IC50 of the listed items.
Give just the numeric value; nM need not be written.

Below, each entry is followed by its recorded IC50 result.
• NC/C(=C\F)COc1ccc2c(c1)CCN(C1CCOCC1)C2=O [Compound 16, hydrochloride] = 6.01
• NC/C(=C\F)COc1ccc2c(c1)NC(=O)CC2 [Compound 1, hydrochloride] = 10.1
• NC/C(=C\F)COc1ccc2c(c1)CCN(c1ccccc1)C2=O [Compound 5, hydrochloride] = 4.87

Let's switch to this molecule now.
rat adipose tissue homogenate SSAO/VAP-1 (Rattus norvegicus (Rat)) / IC50 / NC/C(=C/F)COc1ccc2c(c1)CCN(C1CCOCC1)C2=O [Compound 17, hydrochloride] : value?
5.03

###

SUBJECT OF TEST: rat adipose tissue homogenate SSAO/VAP-1 (Rattus norvegicus (Rat), UniProt O08590)
TEST SUMMARY: Determination of inhibitory activity of rat adipose tissue homogenate SSAO/VAP-1
Assay type: biochemical, Sprague Dawley rats
ASSAY CONDITIONS: rat abdominal adipose tissue homogenate, pargyline pretreated, 37° C.
Counter-ions that a name gives are not always drawn.
Reported IC50 values for the following compounds.
Record the value in nM, omitting the unit from your answer.

- NC/C(=C\F)COc1ccc2c(c1)CCN(c1ncccn1)C2=O [Compound 7, hydrochloride]: 8.98

Given the entry CN1CCc2cc(OC/C(=C\F)CN)ccc2C1=O [Compound 9, hydrochloride] , report its measured IC50.
8.05

Okay, and NC/C(=C/F)COc1ccc2c(c1)CCN(CC1CCOCC1)C2=O [Compound 11, hydrochloride] ?
11.7

For NC/C(=C/F)COc1ccc2c(c1)CCNS2(=O)=O [Compound 33, hydrochloride] then?
4.88
